A collection of compounds and their measured Percent Effect
test system: Wolbachia pipientis; assay: Anti-Wolbachia Cell-Based Screen; assay type: functional; design: scale not given: in the data most compounds retested in dose-response had high values; conditions: 5 µM
Out of some 48,000 compounds screened, about 13,000 (27%) showed an effect of 50% or more. The list shows a part of the results.
State just the number; it will be interpreted in %.

compound	study system	unit symbol	Percent Effect
COCc1cn(C2CCN(C(=O)Cc3ccsc3)CC2)nn1	Wolbachia pipientis	%	-0.9661
CCn1c(CN(C)C)nnc1C1CCN(Cc2ccc(Cl)cc2)CC1	Wolbachia pipientis	%	-12.39
CC(NC(=O)CCn1cccn1)c1ccc2c(c1)OCCO2 (centres undefined)	Wolbachia pipientis	%	98
CCc1ccc(S(=O)(=O)N2CC3(COC(C)(C)OC3)C2)s1	Wolbachia pipientis	%	-8.267
CN(Cc1ccccc1OC(F)(F)F)C(=O)C1CCCN(C(N)=O)C1 (centres undefined)	Wolbachia pipientis	%	15.24
CN1CCC(N2CCOC[C@H]2c2nc(C(C)(C)C)c[nH]2)CC1	Wolbachia pipientis	%	-19.67
CCn1cc(S(=O)(=O)N2CCC(C)Sc3ccccc32)cn1 (centres undefined)	Wolbachia pipientis	%	-6.533
Cc1nc2c(c(=O)n1C)CN(C(=O)C1CCN(C(=O)C3CCC3)CC1)C2	Wolbachia pipientis	%	-3.258

Prompt: Supply measured Percent Effect of Cc1ccc(C(C)NC(=O)CNCCn2cccn2)cc1C (centres undefined) in your reply.
Response: 67.97

* * *

A collection of molecules and their measured Percent Effect
tested on: Wolbachia pipientis; test: Anti-Wolbachia Cell-Based Screen; type: functional; set-up: scale not given: in the data most compounds retested in dose-response had high values; details: 5 µM
Screen size: about 48,000 compounds; about 13,000 (27%) showed an effect of 50% or more. This is one part of the list.
State just the number; it will be interpreted in %.

Example entries begin here.
molecule	unit symbol	measured result
Cc1cc(C)c(CNC(=O)N2CCC(N3CCCCC3)CC2)c(=O)[nH]1	%	-48.68
CCSCCN1CCCN(S(C)(=O)=O)CC1	%	101
CCN(C(=O)NCCc1cccc(F)c1F)C(C)CS(C)(=O)=O (centres undefined)	%	8.569
O=C(c1ccccn1)N1C[C@@H]2CC[C@H](C1)N(C(=O)CCC(F)(F)F)C2	%	-20.57
N#Cc1csc(CN(CC(=O)N2CCCC2)CC2CCCO2)c1 (centres undefined)	%	4.573
Nc1nccnc1C(=O)N(Cc1ccco1)CC1CCCO1 (centres undefined)	%	3.477
C[C@@H]1CN(C(=O)Cc2ccsc2)C[C@]12CCN(CCN(C)C)C2=O	%	171.4
Cc1cc(C[C@@H]2CCC[C@H]2NCc2c[nH]nc2-c2ccccc2)on1.O=C(O)CC(O)(CC(=O)O)C(=O)O	%	114

As a next step, examine the molecule that follows.
Prompt: Supply measured Percent Effect of CN1CCN(C(=O)c2cc3c(s2)CCN3C(=O)C2CC2)CC1 in your reply.
Response: -4.007

* * *

A collection of compounds and their measured Percent Effect
tested on: Wolbachia pipientis; assay: Anti-Wolbachia Cell-Based Screen; type: functional; design: scale not given: in the data most compounds retested in dose-response had high values; conditions: 5 µM
Screen size: about 48,000 compounds; about 13,000 (27%) showed an effect of 50% or more. The list shows a part of the results.
Provide the measurement as a number trailed by its unit.

Example entries begin here.
compound	study system	Percent Effect
Cc1nonc1C1CCCN1C(=O)c1cc2n(n1)CCCNC2 (stereo not drawn)	Wolbachia pipientis	-3.031%
CN1CCN(c2ncccn2)CC(C(=O)N(C)C)C1 (stereo not drawn)	Wolbachia pipientis	92.05%
CCO[C@H]1CC[C@H]2[C@H]1OCCN2CCOCc1ccccc1.O=C(O)C(F)(F)F	Wolbachia pipientis	-37.65%
CN(CC(=O)Nc1cccc(F)c1)Cc1nc(N)nc(N(C)C)n1	Wolbachia pipientis	5.267%
COCCOc1ncccc1CNC(=O)N1CCOCC1	Wolbachia pipientis	-0.8625%

As a next step, examine the compound that follows.
Prompt: Supply measured Percent Effect of CN1CCC(Cc2noc(-c3cn(Cc4ccccc4Cl)nn3)n2)CC1 in your reply.
Response: 21.53%

* * *

tested on: Wolbachia pipientis; assay: Anti-Wolbachia Cell-Based Screen; format: functional; design: scale not given: in the data most compounds retested in dose-response had high values; conditions: 5 µM
Out of some 48,000 compounds screened, about 13,000 (27%) showed an effect of 50% or more. The list shows a part of the results.
property: Percent Effect (%)
State just the number; it will be interpreted in %.

Example entries begin here.
compound	study system	measured result
Clc1ccc(CN2CCC(C3CCN(Cc4cccnc4)CC3)C2)cc1 (centres undefined)	Wolbachia pipientis	-5.932
COCCNC(=O)NC1(c2nc(-c3ccncc3)no2)CCCCC1	Wolbachia pipientis	-5.967
Cn1ccnc1-c1nc(NC2CCCC2)ncc1-c1cccc(F)c1	Wolbachia pipientis	77.55

As a next step, examine the compound that follows.
Prompt: Supply measured Percent Effect of O=C(O)[C@@H]1CN(C(=O)c2ccc(Cl)cc2)C[C@H]1c1cccc(F)c1 in your reply.
Response: 111.8

* * *

system: Wolbachia pipientis; experiment: Anti-Wolbachia Cell-Based Screen; type: functional; set-up: scale not given: in the data most compounds retested in dose-response had high values; conditions: 5 µM
About 13,000 (27%) of roughly 48,000 compounds showed an effect of 50% or more. The list shows a part of the results.
property: Percent Effect (%)
State just the number; it will be interpreted in %.

compound	property	measured result
CCc1nc(CN(C(C)=O)C2CCN(CCc3cccs3)C2)no1 (stereo not drawn)	Percent Effect	109.6

Prompt: Supply measured Percent Effect of Cc1ccc(C(=O)N2CCc3ncc(Cn4cccn4)n3CC2)cn1 in your reply.
Response: 106.9

Prompt: Supply measured Percent Effect of Cn1cccc1C(=O)N1CCc2ncc(Cn3cccn3)n2CC1 in your reply.
Response: -10.36

* * *

test system: Wolbachia pipientis; experiment: Anti-Wolbachia Cell-Based Screen; format: functional; parameters: scale not given: in the data most compounds retested in dose-response had high values; conditions: 5 µM
In all, about 48,000 compounds went through this assay and about 13,000 (27%) showed an effect of 50% or more. Some of the results follow.
property: Percent Effect (%)
State just the number; it will be interpreted in %.

Example entries begin here.
compound	unit symbol	Percent Effect
CCCc1nnc(N2CCN(c3cccc(C)c3C)CC2)o1	%	106.7
CCCc1nnc(N2CCN(C3CCCC3)CC2)o1	%	-0.2431

Prompt: Supply measured Percent Effect of O=C(NCCc1cscn1)c1coc(CN2CCOCC2)c1 in your reply.
Response: -2.273

Prompt: Supply measured Percent Effect of Cc1cnc(C(=O)N2CCC3(CC2)CC(c2ccncc2)C(=O)N3)cn1 (stereo not given) in your reply.
Response: -2.987

* * *

A collection of compounds and their measured Percent Effect
test system: Wolbachia pipientis; experiment: Anti-Wolbachia Cell-Based Screen; format: functional; parameters: scale not given: in the data most compounds retested in dose-response had high values; conditions: 5 µM
In all, about 48,000 compounds went through this assay and about 13,000 (27%) showed an effect of 50% or more. This is one part of the list.
State just the number; it will be interpreted in %.

Example entries begin here.
compound	property	unit symbol	measured result
O=C(c1cc[nH]n1)N1CCc2ncnc(NCc3ccccn3)c2CC1	Percent Effect	%	-6.382
CCC(CNC(=O)NC1CCN(C)CC1)Oc1ccccc1Cl (stereo unspecified)	Percent Effect	%	5.674
COc1c(Br)cccc1CCNC(=O)c1ccon1	Percent Effect	%	-9.617
COc1ccc(-c2cc(CNc3ncnc4c3CCNCC4)no2)cc1	Percent Effect	%	113.1
CCC1COCCN1C(=O)NCc1cccc(-c2cnn(C)c2)c1 (stereo unspecified)	Percent Effect	%	-16.85
O=C(Cc1ccc2c(c1)CCCC2)NCCc1ccccn1	Percent Effect	%	0.3571

Prompt: Supply measured Percent Effect of O=C(O)C(F)(F)F.O=C(c1cnccn1)N1CCc2ncnc(-c3cccnc3)c2CC1 in your reply.
Response: -7.804

Prompt: Supply measured Percent Effect of Clc1ccccc1-c1cc(CNc2ncnc3c2CCNCC3)no1 in your reply.
Response: 100.4

Prompt: Supply measured Percent Effect of CN(Cc1ccccc1NCc1ncc[nH]1)C(=O)c1cccs1 in your reply.
Response: 4.243

* * *

test system: Wolbachia pipientis; test: Anti-Wolbachia Cell-Based Screen; format: functional; set-up: scale not given: in the data most compounds retested in dose-response had high values; conditions: 5 µM
Screen size: about 48,000 compounds; about 13,000 (27%) showed an effect of 50% or more. The list shows a part of the results.
property: Percent Effect (%)
State just the number; it will be interpreted in %.

molecule	Percent Effect (%)
CC(=O)Nc1sc2c(c1C(=O)O)CCc1ccccc1-2	112.1
CCOCc1nccc(-c2ccc(OCC)c(C(=O)O)c2)n1	-8.809

As a next step, examine the molecule that follows.
Prompt: Supply measured Percent Effect of COc1ncccc1C(=O)N1C[C@@H]2COC[C@]2(CN(C)C)C1.O=C(O)C(F)(F)F.O=C(O)C(F)(F)F in your reply.
Response: -15.94
